These measurements were taken from PubChem BioAssay (NCI).

Tested on: K-562 leukemia
Test: NCI-60 one-dose screen, 48 h
Details: 10 µM unless noted
The panel holds about 83,000 compounds, 20% with a hit somewhere; the sample as a whole holds those more often. Active and inactive are the calls of the source. The calls were made as follows: active = growth percent below 10; inactive = the rest.
Reply using exactly one outcome from active, inactive

| smiles.record | class |
| --- | --- |
| C/C(=N\NC(N)=S)c1nnn(-c2ccc([N+](=O)[O-])cc2)c1C | inactive |
| O=C(CCCCCCNC(=O)C(O)(O)C(F)(F)F)Nc1ncc(-c2ccccc2)s1 | inactive |
| Cc1ccc([C@H]2c3[nH]c4ccccc4c3C[C@H]3C(=O)N(CCCCCCC(=O)NO)CC(=O)N23)s1 | inactive |
| CN1CCN(c2ccc(Nc3nc(NCCNS(=O)(=O)c4ccc(Cl)cc4)c4sccc4n3)cc2)CC1 | active |

For COc1ccc(CC(C)=C(c2ccc(OCCN3CCCC3)cc2)c2ccc(OCCN3CCCC3)cc2)cc1 , which call appears in the assay record?
active

###

System: OVCAR-8 ovarian
Test: NCI-60 one-dose screen, 48 h (100 = growth as untreated, 0 = no growth, -100 = all killed)
Details: 10 µM unless noted
The panel holds about 83,000 compounds, 20% with a hit somewhere; the sample as a whole holds those more often.
readout.name: growth (%)
Give bare numbers, in %.

Study these solved cases before continuing.
| compound | assay.system | growth [%] |
| --- | --- | --- |
| COc1ccc(OC)c(NC(=O)CCCCCCNC(=O)C(O)(O)C(F)(F)F)c1 | OVCAR-8 ovarian | 23.4 |
| Oc1ccc(-c2nc3ccc(/C(=N\N=C\c4ccc(Cl)cc4)c4ccccc4)cc3[nH]2)cc1 | OVCAR-8 ovarian | 82.9 |
| O=C1Nc2ccccc2/C1=N\c1nnc(-c2ccccc2)o1 | OVCAR-8 ovarian | 102 |
| C#CCN(C)CCCOc1ccc(NC(=O)CCCCCCCCC(=O)NO)cc1Cl | OVCAR-8 ovarian | 53.4 |
| NC1[C@H]2CN(c3cnc(C(=O)Nc4cc(F)cc5cccnc45)cn3)C[C@@H]12 (stereo not given in full) | OVCAR-8 ovarian | 87.7 |

// for each compound below, give its growth
1. Cc1csc(/N=C(N)/N=C(\N)c2cccnc2)n1
2. N#C/C(=C\c1ccc(-c2ccc(Cl)c(Cl)c2)o1)C(=O)Nc1ncc(Cc2ccc(Cl)cc2)s1
3. CC1CCN(CC(=O)Nn2c(COc3ccccc3)nc3ccccc3c2=O)CC1
4. N#Cc1nc(-c2ccccc2)oc1N1CCC(C2(C(F)(F)F)N=N2)CC1

[89.7, 19.9, 98.5, 97.6]

Measured growth of COC(=O)N1CCN(CCNCc2ccc(NC(=O)c3ccc(C)c(C#Cc4cnc5cccnn45)c3)cc2C(F)(F)F)CC1 : 31.6

###

Tested on: UACC-257 melanoma
Test: NCI-60 one-dose screen, 48 h
Conditions: 10 µM unless noted
Procedure: Cells are grown in 96 well plates and exposed to the test compound for 48 hours. Compounds are tested at a single concentration, which is 10^-5 M for most compounds. The reported endpoint is percent growth (GI% or GIPRCNT), where numbers from 0 - 100% represent growth inhibition, and numbers from -100% - 0 represent cell death. For example, a value of 40 represents 60% growth inhibition. A value of 0 means no net growth occurred over the course of the experiment. […]
This is part of a sample that, as a whole, favours compounds with a hit. Of some 83,000 tested, about 20% had one in any assay. Activity calls are given as the source filed them. The calls were made as follows: active = growth percent below 10; inactive = the rest.
Reply using exactly one outcome from active, inactive

Consider the following illustrative entries.
| smiles.record | class |
| --- | --- |
| COc1cc2cc(Oc3ccc(NC(=O)Nc4ccc(F)c(C(F)(F)F)c4)cc3)c(C)nc2cc1OCCN(C)C | inactive |
| C[C@H]1OCC2(CCN(c3cnc(C(=O)Nc4cc(F)cc5cccnc45)cn3)CC2)[C@H]1N | inactive |
| O=C(Nc1ccccc1)Nc1nc2ccc([N+](=O)[O-])cc2[nH]1 | inactive |
| Cn1c(SCC(=O)c2ccco2)nc2ccccc2c1=O | inactive |
| C#CCOc1ccccc1/C=N/Nc1nc(-c2ccc(Cl)cc2)cs1 | inactive |

For O=C(CCCCCCN1CC(=O)N2[C@@H](c3ccccc3Br)c3[nH]c4ccccc4c3C[C@H]2C1=O)NO , which call appears in the assay record?
inactive

For CCOC(=O)C(=O)Nc1ccc2c(ccn2C(=O)c2cccc(F)c2)c1 , which call appears in the assay record?
inactive

For Cc1ccc2c(n1)C(=O)C(Cl)=C(Nc1ccc(C(F)(F)F)cc1)C2=O , which call appears in the assay record?
inactive

For CN1CCN(Cc2ccc(NC(=O)c3cncc(C#Cc4cnc5ccc(OCC6COC6)nn45)c3)cc2C(F)(F)F)CC1 , which call appears in the assay record?
active

###

System: SNB-75 CNS
Assay: NCI-60 one-dose screen, 48 h (100 = growth as untreated, 0 = no growth, -100 = all killed)
Conditions: 10 µM unless noted
Experimental: Growth inhibition of the SNB-75 human tumor cell line is measured as a screen for anti-cancer activity. Cells are grown in 96 well plates and exposed to the test compound for 48 hours. Compounds are tested at a single concentration, which is 10^-5 M for most compounds. The reported endpoint is percent growth (GI% or GIPRCNT), where numbers from 0 - 100% represent growth inhibition, and numbers from -100% - 0 represent cell death. For example, a value of 40 represents 60% growth inhibition. […]
This is part of a sample that, as a whole, favours compounds with a hit. Of some 83,000 tested, about 20% had one in any assay.
Can you tell me growth for the items I'm about to list?
Answers are plain numbers, in %.

Study these solved cases before continuing.
| smiles.record | readout.name | experimental.result |
| --- | --- | --- |
| C[C@]12CC[C@H]3[C@@H](CC=C4C[C@@H](O)CC[C@@]43C)[C@@H]1CC[C@@H]2[C@](C)(O)CCc1cccnc1 | growth | 62 |
| O=C(N/N=C/c1cc2ccccc2nc1Cl)c1cc(-c2nc3ccccc3[nH]2)nc2ccccc12 | growth | 83.2 |
| O=C(/C=C/Nc1ccc(S(=O)(=O)Nc2ncccn2)cc1)c1ccc(N=Cc2c(O)[nH]c3ccccc23)cc1 | growth | 102 |

Continue with the molecule presented below.
// assay SNB-75 CNS, entry CSc1ccc(/C(=N/N=C(N)N)c2ccc(F)cc2)cc1 , growth value = 44.2

###

Tested on: MDA-MB-435 melanoma
Assay: NCI-60 one-dose screen, 48 h
Conditions: 10 µM unless noted
This is part of a sample that, as a whole, favours compounds with a hit. Of some 83,000 tested, about 20% had one in any assay. Calls of active or inactive are those of the source. Rule for the calls: active = growth percent below 10; inactive = the rest.
Reply using exactly one outcome from active, inactive

| smiles.record | class |
| --- | --- |
| CC[C@]12C=CCN3CC[C@@]4(c5ccc(OC)cc5N(C)[C@H]4[C@@](O)(C(=O)OC)[C@@H]1OC(=O)CCN1CCc4ccccc4C1)[C@@H]32 | inactive |
| CC(C)Sc1nc(-c2ccccc2)c(C#N)c(N2CCOCC2)n1 | inactive |

Shifting focus to the compound that follows.
For Brc1ccc(-c2cc(-c3ccc4c(c3)OCCO4)n[nH]2)s1 , which call appears in the assay record?
active

###

Tested on: SK-MEL-28 melanoma
Experiment: NCI-60 one-dose screen, 48 h (100 = growth as untreated, 0 = no growth, -100 = all killed)
Settings: 10 µM unless noted
The panel holds about 83,000 compounds, 20% with a hit somewhere; the sample as a whole holds those more often.
readout.name: growth (%)
Numbers only, in %.

Study these solved cases before continuing.
| smiles.record | assay.system | experimental.result |
| --- | --- | --- |
| COc1ccc(/C(=N\N=C(N)N)c2ccc(Cl)cc2)cc1OC | SK-MEL-28 melanoma | 96.5 |
| NC(N)=NS(=O)(=O)c1ccc(N=Nc2c(N)nn(-c3ccc([N+](=O)[O-])cc3[N+](=O)[O-])c2N)cc1 | SK-MEL-28 melanoma | 109 |
| Cc1ccc2c(n1)C(=O)C(Cl)=C(Nc1cc(C(F)(F)F)cc(C(F)(F)F)c1)C2=O | SK-MEL-28 melanoma | 88.7 |
| Cc1cc(=O)oc2cc(OCCCOc3ccc(/C=C/C(=O)Nc4ccc(Br)cc4)cc3)ccc12 | SK-MEL-28 melanoma | 86.6 |
| CN(C)c1ccc(/C=N/Nc2nc(N/N=C/c3ccc(N(C)C)cc3)nc(N3CCCCC3)n2)cc1 | SK-MEL-28 melanoma | 41.7 |

// for each compound below, give its growth
1. CCNC(=O)Oc1ccc(/C(=C(/C)c2ccc(OC)cc2)c2ccc(OCCN3CCCCCC3)cc2)cc1
2. COC(=O)c1ccc(NC2=C(Cl)C(=O)C(C)=C(C)C2=O)cc1
3. O=C(Nc1cc(C(F)(F)F)cc(C(F)(F)F)c1)Nc1ccc2oc(=O)ccc2c1

1. 19.8
2. 75.9
3. 34.8

Measured growth of Cc1cc2nc3c4cc(C#N)ccc4n(CCN(C)C)c3nc2cc1C : -50.1
